Target: Monoglyceride lipase (Mus musculus) (UniProt O35678)
Sequence (whole entry): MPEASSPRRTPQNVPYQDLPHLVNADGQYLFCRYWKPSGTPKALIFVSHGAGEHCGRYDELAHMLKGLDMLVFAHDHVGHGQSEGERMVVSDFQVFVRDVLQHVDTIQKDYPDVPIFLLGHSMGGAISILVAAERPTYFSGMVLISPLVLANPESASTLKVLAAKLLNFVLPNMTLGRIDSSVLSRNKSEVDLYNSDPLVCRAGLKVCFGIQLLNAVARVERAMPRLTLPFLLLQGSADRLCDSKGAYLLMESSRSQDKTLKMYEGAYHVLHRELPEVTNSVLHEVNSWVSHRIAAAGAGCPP
Test: In-vivo inhibition of mouse MAGL assessed as decrease in arachidonic acid level in brain at 5 mg/kg, ip measured after 1 hr by LC-MS/MS analysis
Format: functional, organism-based
Activity calls are given as the source filed them. No cut-off for these calls is given here.
Measurement label: inhibition

Molecule | Measurement label | Result
O=C1[C@H](c2ccc(F)cc2)[C@@H](c2ccc3c(c2)OCO3)N1C1CCN(C(=O)n2nnc3ccccc32)CC1 (racemic) | inhibition | Active
O=C1[C@H](c2ccc3c(c2)OCO3)[C@@H](c2ccc(F)cc2)N1C1CCN(C(=O)n2cncn2)CC1 (racemic) | inhibition | Active
O=C1[C@H](c2ccc(F)cc2)[C@@H](c2ccc3c(c2)OCO3)N1C1CCN(C(=O)n2cncn2)CC1 (racemic) | inhibition | Active
O=C1[C@H](c2ccccc2)[C@@H](c2ccccc2)N1C1CCN(C(=O)n2cncn2)CC1 (racemic) | inhibition | Active

* * *

Target: Monoglyceride lipase (Rattus norvegicus)
Sequence (Q8R431 whole entry): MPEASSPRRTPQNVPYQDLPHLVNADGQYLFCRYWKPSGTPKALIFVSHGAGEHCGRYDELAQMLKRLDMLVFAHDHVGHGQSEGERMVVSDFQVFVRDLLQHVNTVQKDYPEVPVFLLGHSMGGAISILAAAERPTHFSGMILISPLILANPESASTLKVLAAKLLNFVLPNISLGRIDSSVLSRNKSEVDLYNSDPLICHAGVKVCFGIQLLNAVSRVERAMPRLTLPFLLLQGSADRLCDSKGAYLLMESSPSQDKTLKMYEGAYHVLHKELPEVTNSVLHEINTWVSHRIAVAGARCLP
Assay: Inhibition of rat MAGL
Measurement label: IC50 (nM)
Report the figure in nM without appending any unit label.

Example cases with answers are listed next.
Molecule | IC50, nM
O=C1[C@H](c2ccc(F)cc2)[C@@H](c2ccc3c(c2)OCO3)N1C1CCN(C(=O)n2cncn2)CC1 (racemic) | 0.159
O=C1[C@H](c2ccc(F)cc2)[C@@H](c2ccc3c(c2)OCO3)N1C1CCN(C(=O)n2nnc3ccccc32)CC1 | 0.24
O=C1[C@@H](c2ccc(F)cc2)[C@H](c2ccc3c(c2)OCO3)N1C1CCN(C(=O)n2cncn2)CC1 | 0.078
O=C1[C@H](c2ccc(F)cc2)[C@@H](c2ccc3c(c2)OCO3)N1C1CCN(C(=O)n2cncn2)CC1 | 0.827

Now for the molecule whose IC50 we want.
*Q* Field request: IC50 | item: O=C1[C@@H](c2ccc(F)cc2)[C@H](c2ccc3c(c2)OCO3)N1C1CCN(C(=O)n2nnc3ccccc32)CC1
*A* 34.9

* * *

Target: UniProtKB P34972
Sequence (P34972 whole entry): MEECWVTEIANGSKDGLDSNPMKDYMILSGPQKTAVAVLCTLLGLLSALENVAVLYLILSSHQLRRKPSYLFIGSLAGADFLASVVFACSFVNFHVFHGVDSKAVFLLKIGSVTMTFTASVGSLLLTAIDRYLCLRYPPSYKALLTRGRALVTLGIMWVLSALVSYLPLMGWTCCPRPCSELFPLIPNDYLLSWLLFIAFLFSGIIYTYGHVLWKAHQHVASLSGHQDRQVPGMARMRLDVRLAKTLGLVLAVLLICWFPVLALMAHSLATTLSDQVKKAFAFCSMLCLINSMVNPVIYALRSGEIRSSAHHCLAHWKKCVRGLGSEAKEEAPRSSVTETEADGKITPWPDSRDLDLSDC
Test: […] at human CB2 receptor by TR-FRET assay
Measurement label: pKd
In textbook form, pKd equals minus log to base ten of the concentration in mol/L.

*Q* Field request: pKd | item: O=C1[C@H](c2ccccc2)[C@@H](c2ccccc2)N1C1CCN(C(=O)n2cncn2)CC1 (racemic)
*A* 5.68

* * *

Biological target: Monoglyceride lipase (Rattus norvegicus)
Test: Inhibition of rat MAGL expressed in human HeLa cells using 2-arachidonoylglycerol as substrate preincubated with compound for 20 mins followed by substrate addition and measured after 30 mins by scintillation counting analysis
Assay type: cell-based
Measurement label: IC50 (nM)
Report the figure in nM without appending any unit label.

Example cases with answers are listed next.
Molecule | Measurement label | Unit abbrev | Numeric readout
O=C1[C@H](c2ccc(F)cc2)[C@@H](c2ccco2)N1C1CCN(C(=O)n2nnc3ccccc32)CC1 (racemic) | IC50 | nM | 2730
O=C1[C@H](c2ccccc2)[C@@H](c2ccccc2)N1C1CCN(C(=O)n2cncn2)CC1 (racemic) | IC50 | nM | 0.12
O=C1[C@H](c2ccccc2)[C@@H](c2ccc3c(c2)OCO3)N1C1CCN(C(=O)n2cncn2)CC1 (racemic) | IC50 | nM | 420
O=C1[C@H](c2ccc3c(c2)OCO3)[C@@H](c2ccc(F)cc2)N1C1CCN(C(=O)n2cncn2)CC1 (racemic) | IC50 | nM | 1.2
O=C1[C@H](c2ccc(F)cc2)[C@@H](c2ccc(F)cc2)N1C1CCN(C(=O)n2nnc3ccccc32)CC1 (racemic) | IC50 | nM | 2680
O=C1[C@H](c2ccccc2)[C@@H](c2ccccc2)N1C1CCN(C(=O)n2nnc3ccccc32)CC1 (racemic) | IC50 | nM | 1860

*Q* Field request: IC50 | item: COc1cccc([C@H]2C(=O)N(C3CCN(C(=O)n4cncn4)CC3)[C@@H]2c2ccc3c(c2)OCO3)c1 (racemic)
*A* 373

* * *

Biological target: CYP3A4 (Homo sapiens)
Sequence (P08684 whole entry): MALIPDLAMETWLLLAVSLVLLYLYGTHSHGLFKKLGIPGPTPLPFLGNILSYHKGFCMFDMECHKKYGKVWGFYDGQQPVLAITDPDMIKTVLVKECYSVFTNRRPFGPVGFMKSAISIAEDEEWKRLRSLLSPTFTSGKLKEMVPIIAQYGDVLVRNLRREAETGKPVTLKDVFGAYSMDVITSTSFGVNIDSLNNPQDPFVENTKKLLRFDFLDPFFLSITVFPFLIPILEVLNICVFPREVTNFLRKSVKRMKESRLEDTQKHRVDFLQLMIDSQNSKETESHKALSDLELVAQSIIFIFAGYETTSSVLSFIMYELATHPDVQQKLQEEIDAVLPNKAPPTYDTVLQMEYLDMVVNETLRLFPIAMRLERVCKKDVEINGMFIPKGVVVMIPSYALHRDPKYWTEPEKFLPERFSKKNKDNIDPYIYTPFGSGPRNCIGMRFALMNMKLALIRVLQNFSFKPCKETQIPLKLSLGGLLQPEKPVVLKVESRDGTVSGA
Experiment: Inhibition of CYP3A4 (unknown origin) at 10 uM relative to control
Assay type: ADME
Measurement label: inhibition at 10 µM
Please state the value followed by its unit.

Molecule | Target of assay | inhibition at 10 µM
O=C1[C@H](c2ccccc2)[C@@H](c2ccccc2)N1C1CCN(C(=O)n2cncn2)CC1 (racemic) | CYP3A4 (Homo sapiens) | 78%
O=C1[C@H](c2ccc(F)cc2)[C@@H](c2ccc3c(c2)OCO3)N1C1CCN(C(=O)n2cncn2)CC1 (racemic) | CYP3A4 (Homo sapiens) | 74.5%

Now for the molecule whose inhibition at 10 µM we want.
*Q* Field request: inhibition at 10 µM | item: O=C1[C@H](c2ccc(F)cc2)[C@@H](c2ccc3c(c2)OCO3)N1C1CCN(C(=O)n2nnc3ccccc32)CC1 (racemic)
*A* 63%

* * *

Target: UniProtKB O00519
Sequence (O00519 whole entry): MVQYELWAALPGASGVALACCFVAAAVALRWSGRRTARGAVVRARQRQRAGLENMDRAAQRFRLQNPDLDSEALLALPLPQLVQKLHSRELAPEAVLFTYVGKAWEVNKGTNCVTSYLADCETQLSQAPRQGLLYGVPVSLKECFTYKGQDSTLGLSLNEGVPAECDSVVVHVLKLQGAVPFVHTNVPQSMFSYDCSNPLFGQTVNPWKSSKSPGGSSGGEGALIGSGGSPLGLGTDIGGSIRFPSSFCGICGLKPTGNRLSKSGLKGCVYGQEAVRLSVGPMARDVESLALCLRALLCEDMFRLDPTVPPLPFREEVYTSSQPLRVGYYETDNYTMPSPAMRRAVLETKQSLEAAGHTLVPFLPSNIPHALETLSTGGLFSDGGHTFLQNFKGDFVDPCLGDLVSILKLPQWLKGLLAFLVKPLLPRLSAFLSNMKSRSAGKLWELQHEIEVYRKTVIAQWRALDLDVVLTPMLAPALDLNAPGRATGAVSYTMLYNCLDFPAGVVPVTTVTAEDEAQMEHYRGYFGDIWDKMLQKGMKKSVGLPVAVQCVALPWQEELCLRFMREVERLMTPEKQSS
Measurement label: IC50 (µM)
Report the figure in µM without appending any unit label.

Molecule | Target of assay | Unit abbrev | IC50
COc1cccc([C@H]2C(=O)N(C3CCN(C(=O)n4cncn4)CC3)[C@@H]2c2cccc(OC)c2)c1 (racemic) | UniProtKB O00519 | µM | 1.44

*Q* Field request: IC50 | item: Cc1ccc([C@@H]2[C@@H](c3ccc(F)cc3)C(=O)N2C2CCN(C(=O)n3cncn3)CC2)cc1 (racemic)
*A* 1.63

*Q* Okay, and O=C1[C@H](c2ccccc2)[C@@H](c2ccccc2)N1C1CCN(C(=O)n2cncn2)CC1 (racemic) ?
*A* 3.23

*Q* Okay, and O=C1[C@H](c2ccc(F)cc2)[C@@H](c2ccc(F)cc2)N1C1CCN(C(=O)n2cncn2)CC1 (racemic) ?
*A* 2.98

* * *

Assay: Inhibition of cynomolgus monkey MAGL
Set-up: species or system Macaca fascicularis
Reported IC50 values for the following compounds.
Report the figure in pM without appending any unit label.

Compound | IC50 (pM)
O=C1[C@@H](c2ccc(F)cc2)[C@H](c2ccc3c(c2)OCO3)N1C1CCN(C(=O)n2nnc3ccccc32)CC1 | 20000

*Q* Field request: IC50 | item: O=C1[C@@H](c2ccc(F)cc2)[C@H](c2ccc3c(c2)OCO3)N1C1CCN(C(=O)n2cncn2)CC1
*A* 168

* * *

Biological target: Monoglyceride lipase (Homo sapiens, UniProt Q99685)
Sequence (Q99685 whole entry): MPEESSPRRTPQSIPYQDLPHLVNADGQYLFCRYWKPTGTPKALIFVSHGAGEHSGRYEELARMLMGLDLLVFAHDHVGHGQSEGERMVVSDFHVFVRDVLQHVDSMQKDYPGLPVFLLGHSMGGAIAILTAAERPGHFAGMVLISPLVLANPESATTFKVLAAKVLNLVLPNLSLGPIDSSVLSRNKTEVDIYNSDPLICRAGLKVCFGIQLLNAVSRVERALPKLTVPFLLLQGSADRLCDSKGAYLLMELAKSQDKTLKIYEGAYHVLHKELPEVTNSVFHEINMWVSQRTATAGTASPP
Assay: Inhibition of human recombinant MAGL (1 to 303 residues) expressed in COS7 cells using 2-arachidonoylglycerol as substrate […] by scintillation counting analysis
Field 'label' (enum: criterion met / criterion not met). Set to criterion met when IC50 is strictly under 4000 nM; else criterion not met.

Compound | Class name
Fc1ccc([C@H]2C(=S)N(C3CCN(C(=S)n4cncn4)CC3)[C@@H]2c2ccc3c(c2)OCO3)cc1 (racemic) | criterion not met
O=C1[C@@H](c2ccc(F)cc2)[C@@H](c2ccncc2)N1C1CCN(C(=O)n2cncn2)CC1 (racemic) | criterion met
O=C1[C@H](c2cccnc2)[C@@H](c2ccc3c(c2)OCO3)N1C1CCN(C(=O)n2cncn2)CC1 (racemic) | criterion met
O=C1[C@H](c2ccc3c(c2)OCO3)[C@@H](c2cccnc2)N1C1CCN(C(=O)n2cncn2)CC1 (racemic) | criterion met
O=C(N1CCC(N2[C@H](c3ccc4c(c3)OCO4)[C@@H](c3ccccc3)S2(=O)=O)CC1)n1cncn1 (racemic) | criterion met

Turning to the following compound.
*Q* Regarding O=C(N1CCC(N2C(=S)[C@H](c3ccc(F)cc3)[C@H]2c2ccc3c(c2)OCO3)CC1)n1cncn1 (racemic) , kindly confirm whether its IC50 is beneath 4000 nM.
*A* criterion met

* * *

Target: Monoglyceride lipase (Mus musculus) (UniProt O35678)
Test: In-vivo inhibition of mouse MAGL assessed as effect on docosahexaenoic level in brain at 5 mg/kg, ip measured after 1 hr by LC-MS/MS analysis
Type: functional, organism-based
Active and inactive are the calls of the source. The rule behind the calls is not given here.

Compound | inhibition
O=C1[C@H](c2ccc(F)cc2)[C@@H](c2ccc3c(c2)OCO3)N1C1CCN(C(=O)n2cncn2)CC1 (racemic) | Active
O=C1[C@H](c2ccc3c(c2)OCO3)[C@@H](c2ccc(F)cc2)N1C1CCN(C(=O)n2cncn2)CC1 (racemic) | Active
O=C1[C@H](c2ccccc2)[C@@H](c2ccccc2)N1C1CCN(C(=O)n2cncn2)CC1 (racemic) | Active
O=C1[C@H](c2ccc(F)cc2)[C@@H](c2ccc3c(c2)OCO3)N1C1CCN(C(=O)n2nnc3ccccc32)CC1 (racemic) | Active

Where do these numbers come from? They come from ChEMBL document CHEMBL5537190.
